# systemUnderTest: FGFR1 (Homo sapiens, UniProt P11362)
# Construct: made in house; host or cells: E. coli derived from BL21, infected with T7 phage
# Sequence (P11362 22-822): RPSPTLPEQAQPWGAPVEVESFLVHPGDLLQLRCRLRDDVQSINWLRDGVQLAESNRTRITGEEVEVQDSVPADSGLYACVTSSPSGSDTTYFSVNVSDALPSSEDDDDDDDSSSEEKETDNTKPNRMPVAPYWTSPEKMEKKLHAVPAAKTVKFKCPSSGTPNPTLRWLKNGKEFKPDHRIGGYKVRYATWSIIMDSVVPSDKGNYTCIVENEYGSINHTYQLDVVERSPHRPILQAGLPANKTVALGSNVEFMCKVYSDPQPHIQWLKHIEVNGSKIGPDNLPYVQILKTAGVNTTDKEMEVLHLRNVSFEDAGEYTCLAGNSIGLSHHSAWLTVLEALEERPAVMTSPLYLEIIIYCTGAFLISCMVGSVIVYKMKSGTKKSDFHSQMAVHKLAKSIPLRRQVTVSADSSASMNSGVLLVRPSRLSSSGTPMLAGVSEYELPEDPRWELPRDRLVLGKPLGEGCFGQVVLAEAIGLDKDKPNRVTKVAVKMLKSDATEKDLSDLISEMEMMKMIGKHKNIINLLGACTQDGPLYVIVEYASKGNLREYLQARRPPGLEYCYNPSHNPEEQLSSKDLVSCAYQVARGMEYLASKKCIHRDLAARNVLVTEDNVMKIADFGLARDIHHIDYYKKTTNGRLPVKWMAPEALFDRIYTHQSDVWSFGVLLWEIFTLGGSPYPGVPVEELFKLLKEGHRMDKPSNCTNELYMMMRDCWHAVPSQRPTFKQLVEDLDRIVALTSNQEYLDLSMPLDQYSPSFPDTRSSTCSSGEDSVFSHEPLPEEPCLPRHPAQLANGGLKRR
# assayName: Kinase binding assay (kinase-tagged T7 phage, qPCR), Kd
# appliedConditions: read-out: FGFR1 (Kd nM)
measurementType: Kd

[
  {
    "compound": "Cc1ncc(Cl)c([C@@H](C)Oc2ccc3[nH]nc(-c4ccc5c(c4)COC4(CCN(CC(F)(F)F)CC4)O5)c3c2)c1Cl",
    "measurementType": "Kd",
    "recordedMeasurement": "100 to 250 nM"
  },
  {
    "compound": "COc1c(C)cc(-c2n[nH]c3ccc(O[C@H](C)c4c(C)cnnc4C)cc23)cc1C#N",
    "measurementType": "Kd",
    "recordedMeasurement": "100 to 250 nM"
  },
  {
    "compound": "Cc1cnnc(C)c1[C@@H](C)Oc1ccc2[nH]nc(-c3cc(C#N)cc(N4CCN(C)CC4)c3)c2c1",
    "measurementType": "Kd",
    "recordedMeasurement": "> 1000 nM"
  },
  {
    "compound": "Cc1cnnc(C)c1[C@H](C)Oc1ccc2[nH]nc(-c3cc(C#N)cc(N4CCOCC4)c3)c2c1",
    "measurementType": "Kd",
    "recordedMeasurement": "> 1000 nM"
  },
  {
    "compound": "Cc1cc(-c2n[nH]c3ccc(O[C@H](C)c4c(Cl)cnc(C)c4Cl)cc23)cnc1O[C@@H]1CCOC1",
    "measurementType": "Kd",
    "recordedMeasurement": "250 to 1000 nM"
  },
  {
    "compound": "COc1cc(N)cc(-c2n[nH]c3ccc(O[C@H](C)c4c(Cl)cncc4Cl)cc23)c1",
    "measurementType": "Kd",
    "recordedMeasurement": "> 1000 nM"
  },
  {
    "compound": "COc1cc2[nH]nc(-c3cnc4c(c3)N(S(C)(=O)=O)CCO4)c2cc1O[C@H](C)c1c(Cl)cncc1Cl",
    "measurementType": "Kd",
    "recordedMeasurement": "250 to 1000 nM"
  },
  {
    "compound": "C[C@@H](Oc1ccc2[nH]nc(-c3cnc(O[C@@H]4CCOC4)c(C#N)c3)c2c1)c1c(Cl)cncc1Cl",
    "measurementType": "Kd",
    "recordedMeasurement": "100 to 250 nM"
  },
  {
    "compound": "Cc1cc(C(=O)N2CCOc3ncc(-c4n[nH]c5ccc(O[C@H](C)c6c(Cl)cncc6Cl)cc45)cc32)ccn1",
    "measurementType": "Kd",
    "recordedMeasurement": "> 1000 nM"
  },
  {
    "compound": "CCOc1cc(C#N)cc(-c2n[nH]c3ccc(O[C@H](C)c4c(C)cnnc4C)cc23)c1",
    "measurementType": "Kd",
    "recordedMeasurement": "250 to 1000 nM"
  },
  {
    "compound": "COc1cc(OCC2CC2)cc(-c2n[nH]c3ccc(O[C@H](C)c4c(C)cnnc4C)cc23)c1",
    "measurementType": "Kd",
    "recordedMeasurement": "> 1000 nM"
  },
  {
    "compound": "Cc1cc(-c2n[nH]c3ccc(O[C@H](C)c4c(C)cnnc4C)cc23)cc(C#N)c1OC1CCN(C2COC2)CC1",
    "measurementType": "Kd",
    "recordedMeasurement": "0.1 to 100 nM"
  },
  {
    "compound": "CCN1CCC2(CC1)CC(O)c1cc(-c3n[nH]c4ccc(O[C@H](C)c5c(C)cnnc5C)cc34)ccc1O2 (stereo partly drawn)",
    "measurementType": "Kd",
    "recordedMeasurement": "0.1 to 100 nM"
  },
  {
    "compound": "C[C@@H](Oc1cc2c(-c3cnc(O[C@@H]4CCOC4)c(C#N)c3)n[nH]c2cc1F)c1c(Cl)cncc1Cl",
    "measurementType": "Kd",
    "recordedMeasurement": "100 to 250 nM"
  },
  {
    "compound": "COc1ncc(-c2n[nH]c3ccc(O[C@H](C)c4c(Cl)cncc4Cl)cc23)cc1NC(=O)c1ccccn1",
    "measurementType": "Kd",
    "recordedMeasurement": "> 1000 nM"
  }
]

Source listed as patent US20240316022A1.
